Tested on: SW-620 colon
Experiment: NCI tumour cell line growth inhibition, 48 h
Documented TGI across a set of compounds

compound=COc1ccc2nc(C(=O)c3ccccc3)c(C)cc2c1 recorded_endpoint=TGI reported_measurement="> 37.4 µM"

# input for lookup
Query: What does the record list as TGI for CC1=C(C(=O)Nc2ccccc2)C(c2ccccc2Cl)C(C(=O)Nc2ccccc2)=C(C)N1 ?
Result: 76.2 µM

====

Test system: A498 renal
Assay: NCI tumour cell line growth inhibition, 48 h
recorded-endpoint: log10(TGI) (log10 of the value in µM)
Reminder: these figures are log10 of reported TGI, in µM before transformation.

compound=Cc1c2ccncc2c(C)c2c1[nH]c1ccc(OCCN(C)C)cc12 recorded_endpoint=log10(TGI) reported_measurement=0.44
compound="COc1ccc(-c2cc3c(C)nc(N)nc3n(C3CCC(OCCO)CC3)c2=O)cn1 (centres undefined)" recorded_endpoint=log10(TGI) reported_measurement=-1.03
compound="Cc1ccccc1NC(=O)CC(=O)NNC(Sc1ccccc1)c1cc(N=Nc2ccc(Br)cc2)ccc1O (centres undefined)" recorded_endpoint=log10(TGI) reported_measurement=0.90
compound=CSc1cnc2ccccc2c1Sc1c[nH]c2ccccc2c1=O recorded_endpoint=log10(TGI) reported_measurement=1.68
compound=CCCc1cc(=O)n2c(C(=O)Nc3ccc(F)cc3)c(C(=O)Nc3ccc(F)cc3)sc2n1 recorded_endpoint=log10(TGI) reported_measurement=2.14
compound="N#CC1=C(N)Oc2c(ccc3ccccc23)C1c1cc(=O)oc2ccc(Cl)cc12 (centres undefined)" recorded_endpoint=log10(TGI) reported_measurement=1.63
compound="CN(C)CC1CCC(CN(C)C)C(=O)C1=O (centres undefined)" recorded_endpoint=log10(TGI) reported_measurement=1.50

Query: What does the record list as log10(TGI) for C#Cc1cccc(Nc2nc(Cl)nc3cc(NC(=O)CCl)ccc23)c1 ?
Result: 0.80

====

Tested on: SF-539 CNS
Assay: NCI tumour cell line growth inhibition, 48 h; in the data active means GI50 below about 0.43 µM; inactive means the rest
Answer with one of the outcomes YES (active), NO (inactive)

Query: Per the assay record, what outcome was assigned to C=C1C(O)C2CC(C)(CO)C(=O)C2=C(CC(C)C)C12CC2 (configuration not stated) ?
Result: NO

====

Documented TGI across a set of molecules
Tested on: K-562 leukemia
Assay: NCI tumour cell line growth inhibition, 48 h

Past entries and their recorded results:
molecule="N#Cc1c(N)nc2c3c1NC(=O)C(C(N)=O)C3c1ccccc1O2 (configuration not stated)" reported_measurement="> 100 µM"
molecule=O=C(NCCCc1cn[nH]c1)c1ccc(-c2ccncc2)c(C#Cc2ccc(F)cc2)c1 reported_measurement="> 100 µM"
molecule=O=C(O)/C=C\C(=O)Nn1c(Cc2ccc(Cl)cc2)n[nH]c1=O reported_measurement="> 100 µM"
molecule=O=c1c2ccccc2nc2ccc3c(Cl)[nH][nH]c3c12 reported_measurement="> 100 µM"
molecule=COc1cc(N(CCC#N)CCC#N)ccc1/C=N\NC(=O)c1ccc(C)cc1 reported_measurement="> 100 µM"

Query: Fill in the recorded TGI for this molecule, with K-562 leukemia as test system: COc1ccc(/C=C/c2c(C(=O)/C=C/c3ccc(C(F)(F)F)cc3)c(C)nc3ccccc23)cc1
Result: > 100 µM

====

SK-MEL-2 melanoma GI50 data

Past entries and their recorded results:
compound=CC/C(Cc1ccccc1)=C(\c1ccc(OCCN2CCCC2)cc1)c1ccc(OC(=O)NCc2ccccc2)cc1 reported_measurement="2.09 µM"
compound=O=C(Nc1ccccc1I(=O)=O)C1CCCCC1 reported_measurement="> 100 µM"
compound="O=C1CSC(c2ccccc2Cl)N1c1nnc(Cn2cnnc2)o1 (stereo unspecified)" reported_measurement="22.6 µM"
compound=O=C(NCCCc1cn[nH]c1)c1ccc(-c2ccncc2)c(C#Cc2ccc(F)cc2)c1 reported_measurement="11.5 µM"
compound=CN(C)CCCn1c(=O)c2ccccc2c2cnc3[nH]ccc3c21 reported_measurement="1.79 µM"

# input for lookup
Query: Fill in the recorded GI50 for this compound, with SK-MEL-2 melanoma as test system: CCCCC#Cc1c(I)n(C)c(=O)[nH]c1=O
Result: 1.93 µM
